- System: HL-60
- experimental_details: NCI tumour cell line growth inhibition, 48 h
The source made the active and inactive calls. No stated cut-off is given here; in the data, active = GI50 up to about 1.1 µM and inactive = higher.
readout_type: GI50

// known answers, use as guide
| compound | GI50 |
| --- | --- |
| O=C(O)[C@H](c1ccccc1)[C@@H](C(=O)O)c1ccccc1 | 0.228 µM (active) |
| Cc1nn(-c2ccccc2)c2nc3c(c(C)nn3-c3ccccc3)c(-c3ccc(C(F)(F)F)cc3)c12 | > 100 µM (inactive) |
| CC12CCC(=O)N1c1cnccc1N2 (stereo not given) | > 100 µM (inactive) |
| O=C1CSC(c2ccccc2O)N1c1ccc(-n2c(-c3ccccc3)nc3ccccc3c2=O)cc1 (stereo not given) | 21.6 µM (inactive) |
| C(/COc1cccnc1)=N\NC1=NCCN1 | > 100 µM (inactive) |
| O=C1OC(CN2CCOCC2)CN1/N=C/c1ccc([N+](=O)[O-])o1 (stereo not given) [FURALTADONE] | 48.8 µM (inactive) |
| CC(=O)O[C@H]1CC[C@H]2[C@@H]3CCC(C(C)=O)[C@H](C(=O)O)[C@H]3CC[C@]12C (stereo not given in full) | > 100 µM (inactive) |
| COC(=O)c1c2c(cc3c1CC1(Cc4ccccc4C1)C3)CCC2 | 17.3 µM (inactive) |
| CC(=O)c1ccc2c(c1)oc(=O)n2CCN1CCCCC1 | > 100 µM (inactive) |

Turning now to a further compound:
In plain terms, COc1ccc(C(SC2C(O)C(CO)OC2n2ccc(=O)[nH]c2=O)(c2ccccc2)c2ccc(OC)cc2)cc1 (stereo not given) has a documented GI50 of 25.6 µM (inactive)

---

Items are presented alongside their recorded GI50.
- Tested on: A549
- experimental_details: NCI tumour cell line growth inhibition, 48 h
Calls of active or inactive are those of the source. Rule as the data show it: active = GI50 up to about 1.1 µM and inactive = higher.

| compound | GI50 |
| --- | --- |
| CC1S/C(=N/c2nnc(-c3ccccc3)o2)NC1=O (configuration not stated) | 37.6 µM (inactive) |

Form field GI50, entry `CNC(=O)CCCNC(=O)CCCC(=O)N(C)C` : > 100 µM (inactive)

GET /value?item= CC(C)(Cl)C(Cl)CC/C(CBr)=C(\Cl)CCl (configuration not stated) &field=GI50 returns 18 µM (inactive)

Measured GI50, CC(=O)O[C@H]1CC[C@H]2[C@@H]3CCC(C(C)=O)[C@H](C(=O)O)[C@H]3CC[C@]12C (some centres not stated) : > 100 µM (inactive)

Reported GI50 for `O=C(O)C#Cc1ccc([N+](=O)[O-])cc1` was > 100 µM (inactive)

# GI50 of `O=C(O)[C@H](c1ccccc1)[C@@H](C(=O)O)c1ccccc1` = > 100 µM (inactive)

---

- System: SK-MEL-2
- experimental_details: NCI tumour cell line growth inhibition, 48 h
Calls of active or inactive are those of the source. Rule as the data show it: active = GI50 up to about 1.1 µM and inactive = higher.
readout_type: GI50

So, `CNC(=O)NS(=O)(=O)c1ccc(C)cc1.NS(=O)O` ? Its GI50 was > 100 µM (inactive)

Entry COc1ccc(C2SC(=N)Nc3c2c(C)nn3C(=O)c2ccccc2O)cc1OC (stereo unspecified) , GI50 reported as 4.26 µM (inactive)

The compound `CC(=O)/N=C1\N/C(=C/c2cc([N+](=O)[O-])ccc2O)CN1C` showed GI50 equal to > 100 µM (inactive)

Looking up COC(=O)CCC(NC(=O)OC(C)(C)C)C(=O)NC(Cc1ccc(NC(=O)CCCC(C)=O)cc1)C(=O)NC(CCC(=O)OC)C(=O)OC (stereo unspecified) , I see its GI50 listed as > 100 µM (inactive)

Record `Nc1nc(S)nc(C(=O)Nc2nccs2)c1-c1ccccc1` . Reported GI50: > 100 µM (inactive)

get_value(item= `C=CCN(C)CN(C)c1nc(N(C)C)nc(N(C)C)n1` , readout=GI50) returns > 100 µM (inactive)

Note to self: GI50 recorded for `Cc1cccc(C)c1NC(=S)NC=C(C(N)=O)C(N)=O` was > 100 µM (inactive)

// field: GI50; key: COC(=O)CC1C2CC3C(C2=O)C13 (stereo unspecified) ; value = > 100 µM (inactive)

Short answer for `CCOC(=O)CCc1c(C)c2c(O)cc(O)cc2oc1=O` : GI50 was > 76.4 µM (inactive)

The compound listed as `O=c1c2cc([N+](=O)[O-])ccc2oc2nc3n(c(=O)c12)CCCS3` shows GI50 equal to > 100 µM (inactive)

For this compound ( CC(=O)O[C@H]1CC[C@H]2[C@@H]3CCC(C(C)=O)[C@H](C(=O)O)[C@H]3CC[C@]12C (stereo partly specified) ), measured GI50 is > 100 µM (inactive)

`CN(C)c1ccc(/C=C2\C[C@H]3[C@@H]4CC=C5C[C@@H](O)CC[C@]5(C)[C@H]4CC[C@]3(C)[C@H]2O)cc1` has a reported GI50 of 20.9 µM (inactive)

Recorded result, `Cc1ccccc1/N=N/c1c(O)ccc2ccccc12` , GI50: > 100 µM (inactive)

Entry CN1NC(c2ccccc2)=C(C#N)C(=O)CC1c1ccccc1Cl (stereo unspecified) ; GI50 = > 100 µM (inactive)

# compound CCOC1(OCC)N=C(N)C2(C#N)C3(C(=O)N(C(C)C)N=C3C)C12C#N (stereo unspecified) ; its GI50 = > 100 µM (inactive)
